System: Escherichia coli TOP10
assay name: shrunken log2 fold change of peptide-encoding DNA abundance (4.5 h post-induction vs induction); higher = less antimicrobial activity (less host growth inhibition)
assay conditions: time post-induction: 4.5 h; library: site-saturation at positions 5, 18, 19, 20

- sequence input: "RRIRERPPRLPRPRPRPWASPRP"
  assayed target: "Escherichia coli TOP10"
  shrunken log2 fold change: -0.00133
- sequence input: "RRIRERPPRLPRPRPRPLLWPRP"
  assayed target: "Escherichia coli TOP10"
  shrunken log2 fold change: -0.0136
- sequence input: "RRIRDRPPRLPRPRPRPWTAPRP"
  assayed target: "Escherichia coli TOP10"
  shrunken log2 fold change: -0.0482
- sequence input: "RRIRPRPPRLPRPRPRPGTGPRP"
  assayed target: "Escherichia coli TOP10"
  shrunken log2 fold change: -0.0651
- sequence input: "RRIRRRPPRLPRPRPRPQVKPRP"
  assayed target: "Escherichia coli TOP10"
  shrunken log2 fold change: 0.132
- sequence input: "RRIRDRPPRLPRPRPRPAFMPRP"
  assayed target: "Escherichia coli TOP10"
  shrunken log2 fold change: 0.699
- sequence input: "RRIRTRPPRLPRPRPRPDRVPRP"
  assayed target: "Escherichia coli TOP10"
  shrunken log2 fold change: -0.0605
- sequence input: "RRIRVRPPRLPRPRPRPCVHPRP"
  assayed target: "Escherichia coli TOP10"
  shrunken log2 fold change: -0.192

---

Each entry below carries its reported shrunken log2 fold change.
Tested on: Escherichia coli TOP10;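 also: peptides expressed intracellularly from a pBAD plasmid library in pooled LB shake-flask culture, induced with 0.3% L-arabinose, DNA abundance read by NGS, three biological replicates, DESeq2 with apeglm shrinkage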
assay name: shrunken log2 fold change of peptide-encoding DNA abundance (4.5 h post-induction vs induction); higher = less antimicrobial activity (less host growth inhibition)
assay conditions: time post-induction: 4.5 h; library: site-saturation at positions 5, 18, 19, 20

- sequence input: "RRIRIRPPRLPRPRPRPVKTPRP"
  shrunken log2 fold change: -0.0343
- sequence input: "RRIRPRPPRLPRPRPRPIRKPRP"
  shrunken log2 fold change: 0.0224
- sequence input: "RRIRHRPPRLPRPRPRPYAVPRP"
  shrunken log2 fold change: -0.0274
- sequence input: "RRIRHRPPRLPRPRPRPEMRPRP"
  shrunken log2 fold change: 0.122
- sequence input: "RRIRQRPPRLPRPRPRPMSIPRP"
  shrunken log2 fold change: -0.00929
- sequence input: "RRIRDRPPRLPRPRPRPISQPRP"
  shrunken log2 fold change: 0.12
- sequence input: "RRIRMRPPRLPRPRPRPAGIPRP"
  shrunken log2 fold change: -0.000742
- sequence input: "RRIRHRPPRLPRPRPRPTHIPRP"
  shrunken log2 fold change: -0.468
- sequence input: "RRIRNRPPRLPRPRPRPDMLPRP"
  shrunken log2 fold change: -0.116
- sequence input: "RRIRYRPPRLPRPRPRPWVLPRP"
  shrunken log2 fold change: -0.223
- sequence input: "RRIRCRPPRLPRPRPRPDMPPRP"
  shrunken log2 fold change: -0.253
- sequence input: "RRIRNRPPRLPRPRPRPFPRPRP"
  shrunken log2 fold change: 0.0857
- sequence input: "RRIRTRPPRLPRPRPRPHCTPRP"
  shrunken log2 fold change: -0.298
- sequence input: "RRIRHRPPRLPRPRPRPCEFPRP"
  shrunken log2 fold change: -0.324
- sequence input: "RRIRHRPPRLPRPRPRPCAFPRP"
  shrunken log2 fold change: -0.176
- sequence input: "RRIRVRPPRLPRPRPRPAVEPRP"
  shrunken log2 fold change: 0.565
- sequence input: "RRIRERPPRLPRPRPRPMDMPRP"
  shrunken log2 fold change: -0.189
- sequence input: "RRIRARPPRLPRPRPRPRDDPRP"
  shrunken log2 fold change: 0.647
- sequence input: "RRIRQRPPRLPRPRPRPESVPRP"
  shrunken log2 fold change: 0.00473
- sequence input: "RRIRGRPPRLPRPRPRPMQTPRP"
  shrunken log2 fold change: 0.0492
- sequence input: "RRIRGRPPRLPRPRPRPKERPRP"
  shrunken log2 fold change: 0.00594
- sequence input: "RRIRHRPPRLPRPRPRPGLYPRP"
  shrunken log2 fold change: -0.149
- sequence input: "RRIRARPPRLPRPRPRPLLIPRP"
  shrunken log2 fold change: -0.0375
- sequence input: "RRIRTRPPRLPRPRPRPEQIPRP"
  shrunken log2 fold change: 0.126
- sequence input: "RRIRNRPPRLPRPRPRPAMKPRP"
  shrunken log2 fold change: 0.284
- sequence input: "RRIRTRPPRLPRPRPRPRIMPRP"
  shrunken log2 fold change: -0.254
- sequence input: "RRIRWRPPRLPRPRPRPQTMPRP"
  shrunken log2 fold change: -0.00112
- sequence input: "RRIRTRPPRLPRPRPRPLDRPRP"
  shrunken log2 fold change: 0.0153
- sequence input: "RRIRYRPPRLPRPRPRPHARPRP"
  shrunken log2 fold change: -0.163
- sequence input: "RRIRCRPPRLPRPRPRPYNVPRP"
  shrunken log2 fold change: -0.434
- sequence input: "RRIRLRPPRLPRPRPRPNIHPRP"
  shrunken log2 fold change: -0.621
- sequence input: "RRIRYRPPRLPRPRPRPRTNPRP"
  shrunken log2 fold change: -0.492
